system: U87; test: in vitro antitumor activity, U87; type: cell-based; conditions: U87 (U87-MG brain tumor) cells
endpoint_name: IC50 (nM)
One number for each entry, in nM.

Task item: Can you share its IC50? I mean this compound: COc1cccc2c1C(=O)c1c(O)c3c(c(O)c1C2=O)C[C@@](O)(C(C)=O)C[C@@H]3O[C@H]1C[C@H](N)[C@H](O)[C@H](C)O1 [DNR, reference compound]
Reply: 143

* * *

experiment: 5-mice pilot single-dose pharmacokinetic study, plasma and brain; format: in vivo; conditions: mouse, plasma, iv, 5 mg/kg, one hour following a single ~5 mg/kg intravenous dose, read-out: mean normalized concentration in plasma
endpoint_name: concentration at 1 h (ng/mL)
Answers are plain numbers, in ng/mL.

Task item: Can you share its concentration at 1 h? I mean this molecule: COc1cccc2c1C(=O)c1c(O)c3c(c(O)c1C2=O)C[C@](O)(C(C)=O)C[C@H]3OC1CC(NCc2ccc(NC(=O)c3cc(NC(=O)c4cc(NC(=O)c5ccccn5)cn4C)cn3C)cc2)C(O)C(C)O1 (stereo partly shown) [WP1244]
Reply: 283

* * *

assay: Mouse Plasma PK and Brain Distribution Study following Single IV Dose; type: in vivo, male CD1 mice; conditions: male, CD1, mouse, plasma, iv, 10 mg/kg, mice, 10 mg/kg IV, 2-compartment model; read-out: volume of distribution Vss
endpoint_name: Vd (L/kg)
Give bare numbers, in L/kg.

Task item: Can you share its Vd? I mean this compound: COc1cccc2c1C(=O)c1c(O)c3c(c(O)c1C2=O)C[C@](O)(C(C)=O)C[C@H]3OC1CC(NCc2ccc(NC(=O)c3cc(NC(=O)c4cc(NC(=O)c5ccccn5)cn4C)cn3C)cc2)C(O)C(C)O1 (stereo partly shown)
Reply: 0.336

* * *

assay: Mouse Plasma PK and Brain Distribution Study following Single IV Dose; assay type: in vivo, male CD1 mice; conditions: male, CD1, mouse, plasma; mice, 10 mg/kg IV, 2-compartment model; read-out: Drug clearance (converted)
endpoint_name: clearance (mL/min/kg)
Numbers only, in mL/min/kg.

Task item: Can you share its clearance? I mean this molecule: COc1cccc2c1C(=O)c1c(O)c3c(c(O)c1C2=O)C[C@](O)(C(C)=O)C[C@H]3OC1CC(NCc2ccc(NC(=O)c3cc(NC(=O)c4cc(NC(=O)c5ccccn5)cn4C)cn3C)cc2)C(O)C(C)O1 (stereo partly shown)
Reply: 0.683

* * *

assay: Mouse Plasma PK and Brain Distribution Study following Single IV Dose; format: in vivo, male CD1 mice; settings: male, CD1, mouse, plasma; mice, 10 mg/kg IV, 24 hours after IV bolus injection; read-out: mean nadir plasma concentration
endpoint_name: concentration at 24 h (ng/mL)
Give bare numbers, in ng/mL.

Task item: Can you share its concentration at 24 h? I mean this compound: COc1cccc2c1C(=O)c1c(O)c3c(c(O)c1C2=O)C[C@](O)(C(C)=O)C[C@H]3OC1CC(NCc2ccc(NC(=O)c3cc(NC(=O)c4cc(NC(=O)c5ccccn5)cn4C)cn3C)cc2)C(O)C(C)O1 (stereo partly shown) [WP1244]
Reply: 21.5

* * *

test: 5-mice pilot single-dose pharmacokinetic study, plasma and brain; type: in vivo; details: mouse, brain, iv, 5 mg/kg, one hour following a single ~5 mg/kg intravenous dose, read-out: range of normalized concentration in brain
endpoint_name: concentration at 1 h

Task item: Can you share its concentration at 1 h? I mean this compound: COc1cccc2c1C(=O)c1c(O)c3c(c(O)c1C2=O)C[C@](O)(C(C)=O)C[C@H]3OC1CC(NCc2ccc(NC(=O)c3cc(NC(=O)c4cc(NC(=O)c5ccccn5)cn4C)cn3C)cc2)C(O)C(C)O1 (stereo partly shown)
Reply: 43 to 203 ng/g

* * *

test: Mouse Plasma PK and Brain Distribution Study following Single IV Dose; type: in vivo, male CD1 mice; settings: male, CD1, mouse, plasma, iv, 10 mg/kg, mice, 10 mg/kg IV, 2-compartment model; read-out: volume of distribution Vc
endpoint_name: Vd (L/kg)
Give bare numbers, in L/kg.

Task item: Can you share its Vd? I mean this compound: COc1cccc2c1C(=O)c1c(O)c3c(c(O)c1C2=O)C[C@](O)(C(C)=O)C[C@H]3OC1CC(NCc2ccc(NC(=O)c3cc(NC(=O)c4cc(NC(=O)c5ccccn5)cn4C)cn3C)cc2)C(O)C(C)O1 (stereo partly shown) [WP1244]
Reply: 0.0097

* * *

test: Mouse Plasma PK and Brain Distribution Study following Single IV Dose; type: in vivo, male CD1 mice; conditions: male, CD1, mouse, brain, iv, 10 mg/kg, mice, 10 mg/kg IV, over the measured interval (except 5 min timepoint); read-out: brain tissue to plasma concentration ratio
endpoint_name: Kp

Task item: Can you share its Kp? I mean this molecule: COc1cccc2c1C(=O)c1c(O)c3c(c(O)c1C2=O)C[C@](O)(C(C)=O)C[C@H]3OC1CC(NCc2ccc(NC(=O)c3cc(NC(=O)c4cc(NC(=O)c5ccccn5)cn4C)cn3C)cc2)C(O)C(C)O1 (stereo partly shown) [WP1244]
Reply: > 1

* * *

assay: Mouse Plasma PK and Brain Distribution Study following Single IV Dose; assay type: in vivo, male CD1 mice; settings: male, CD1, mouse, brain; mice, 10 mg/kg IV, at 24 hours; read-out: nadir brain tissue concentration
endpoint_name: concentration at 24 h

Task item: Can you share its concentration at 24 h? I mean this compound: COc1cccc2c1C(=O)c1c(O)c3c(c(O)c1C2=O)C[C@](O)(C(C)=O)C[C@H]3OC1CC(NCc2ccc(NC(=O)c3cc(NC(=O)c4cc(NC(=O)c5ccccn5)cn4C)cn3C)cc2)C(O)C(C)O1 (stereo partly shown) [WP1244]
Reply: > 100 ng/g

* * *

tested on: D54; assay: in vitro antitumor activity, D54; type: cell-based; details: Homo sapiens; D54 cells
endpoint_name: pIC50
Give bare numbers, as −log10 of the molar value.

Task item: Can you share its pIC50? I mean this compound: COc1cccc2c1C(=O)c1c(O)c3c(c(O)c1C2=O)C[C@](O)(C(C)=O)C[C@H]3OC1CC(NCc2ccc(NC(=O)c3cc(NC(=O)c4cc(NC(=O)c5ccccn5)cn4C)cn3C)cc2)C(O)C(C)O1 (stereo partly shown)
Reply: 8.97

Where do these numbers come from? They come from patent US10358439B2.
